Hey, just so you know, these numbers are from patent US20210277137A1.

target.or.system: human CD40 on cells (human, UniProt P25942 21-277); further: test concentration or dose not given here
Sequence (P25942 21-277 limits assumed): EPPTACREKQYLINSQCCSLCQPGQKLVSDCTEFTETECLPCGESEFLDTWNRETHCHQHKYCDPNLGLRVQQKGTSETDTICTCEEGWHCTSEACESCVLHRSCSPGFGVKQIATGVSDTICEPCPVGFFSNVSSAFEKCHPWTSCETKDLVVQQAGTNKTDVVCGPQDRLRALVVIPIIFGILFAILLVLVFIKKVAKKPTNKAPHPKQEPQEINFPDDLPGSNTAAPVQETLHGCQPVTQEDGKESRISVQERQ
assay.overview: cell-based or functional assay
readout.label: moDC activation (IL-12p70, pg/mL)

Input line: Please give the measured moDC activation (IL-12p70, pg/mL) for this binder: AD163.162.1 (antibody, V domains shown, mouse hybridoma monoclonal; also called muAb6) VH: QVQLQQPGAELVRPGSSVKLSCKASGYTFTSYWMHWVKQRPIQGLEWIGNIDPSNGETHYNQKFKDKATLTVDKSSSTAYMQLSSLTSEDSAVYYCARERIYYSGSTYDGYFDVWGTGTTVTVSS VL: QIVLTQSPAIMSASPGEKVTMTCSASSSLSYMHWYQQKSGTSPKRWIYDTSKLASGVPARFSGSGSGTSYSLTISSMEAEDAATYYCQQWSSNPWTFGGGTKLEIK
Output line: 2160 pg/mL

Input line: Please give the measured moDC activation (IL-12p70, pg/mL) for this binder: AD164.76.3 (antibody, V domains shown, mouse hybridoma monoclonal; also called muAb10) VH: DVQLQESGPGLVKPSQSLSLTCSVTGYSITSNYYWNWIRQFPGNKLEWMGYIRYDGSNNYNPSLKNRISITRDTSKNQFFLRLNSVTTEDTATYYCTRLDYWGQGTTLTVSS VL: DAVMTQTPLSLPVSLGDQASISCRSSQSLENSNGNTFLNWFLQKPGQSPQLLIYRISNRFSGVPDRFSGSGSGTDFTLKISRVEAEDLGVYFCLQVTHVPFTFGSGTKLEIK
Output line: 770 pg/mL

Input line: Please give the measured moDC activation (IL-12p70, pg/mL) for this binder: AD166.4.4 (antibody, V domains shown, mouse hybridoma monoclonal; also called muAb2) VH: QVQLQQSGAELMKPGASAKLSCKATGYTFTGYWIQWVKQRPGHGLEWIGEILPGGDHTKYNEKFRGKATFTSDTSSNTVYMQLSSLTTEDSAIYYCARVGGDYWGQGTTLTVSS VL: DVVMTQTPLSLPVSLGDQASISCRSSQSLVNSNENTYLHWYLQKPGQSPKLLIYKVFNRYSGVPDRFSGSGSGTDFTLKISRVEAEDLGVYFCFQSTHVPWTFGGGTKLEIK
Output line: 0 pg/mL
